- System: Mycobacterium tuberculosis
- protocol: Antimycobacterial activity against Mycobacterium tuberculosis H37Rv ATCC 27294 assessed as inhibition of bacterial growth by agar plate dilution method
- Format: functional
result_type: MIC (µg/mL)
Write the number in µg/mL without appending the unit.

Would you please look over these solved cases?
NNC(=O)c1ccncc1: 0.4
CC(C)=CCC/C(C)=C/CC/C(C)=C/COc1ccc(C(=O)OCCCOc2cccc(Nc3nc4ccccc4c(=O)o3)c2)cc1: 2.9
CO[C@H]1/C=C/O[C@@]2(C)Oc3c(C)c(O)c4c(O)c(c(/C=N/N5CCN(C)CC5)c(O)c4c3C2=O)NC(=O)/C(C)=C\C=C\[C@H](C)[C@H](O)[C@@H](C)[C@@H](O)[C@@H](C)[C@H](OC(C)=O)[C@@H]1C: 0.01

Query molecule follows.
Sample `CC(C)=CCC/C(C)=C/COc1ccc(C(=O)OCCCOc2cccc(Nc3nc4ccccc4c(=O)o3)c2)cc1` ; MIC observed: 3.5
